# Tested Target: F508delCFTR (Homo sapiens, UniProt P13569, DEL508-508)
# Construct: expressed in transfected cells; host or cells: CFBE41o- (human lung derived epithelial cell line), doxycycline-inducible expression
# Sequence (P13569 with tags, fused parts or gaps DEL508-508): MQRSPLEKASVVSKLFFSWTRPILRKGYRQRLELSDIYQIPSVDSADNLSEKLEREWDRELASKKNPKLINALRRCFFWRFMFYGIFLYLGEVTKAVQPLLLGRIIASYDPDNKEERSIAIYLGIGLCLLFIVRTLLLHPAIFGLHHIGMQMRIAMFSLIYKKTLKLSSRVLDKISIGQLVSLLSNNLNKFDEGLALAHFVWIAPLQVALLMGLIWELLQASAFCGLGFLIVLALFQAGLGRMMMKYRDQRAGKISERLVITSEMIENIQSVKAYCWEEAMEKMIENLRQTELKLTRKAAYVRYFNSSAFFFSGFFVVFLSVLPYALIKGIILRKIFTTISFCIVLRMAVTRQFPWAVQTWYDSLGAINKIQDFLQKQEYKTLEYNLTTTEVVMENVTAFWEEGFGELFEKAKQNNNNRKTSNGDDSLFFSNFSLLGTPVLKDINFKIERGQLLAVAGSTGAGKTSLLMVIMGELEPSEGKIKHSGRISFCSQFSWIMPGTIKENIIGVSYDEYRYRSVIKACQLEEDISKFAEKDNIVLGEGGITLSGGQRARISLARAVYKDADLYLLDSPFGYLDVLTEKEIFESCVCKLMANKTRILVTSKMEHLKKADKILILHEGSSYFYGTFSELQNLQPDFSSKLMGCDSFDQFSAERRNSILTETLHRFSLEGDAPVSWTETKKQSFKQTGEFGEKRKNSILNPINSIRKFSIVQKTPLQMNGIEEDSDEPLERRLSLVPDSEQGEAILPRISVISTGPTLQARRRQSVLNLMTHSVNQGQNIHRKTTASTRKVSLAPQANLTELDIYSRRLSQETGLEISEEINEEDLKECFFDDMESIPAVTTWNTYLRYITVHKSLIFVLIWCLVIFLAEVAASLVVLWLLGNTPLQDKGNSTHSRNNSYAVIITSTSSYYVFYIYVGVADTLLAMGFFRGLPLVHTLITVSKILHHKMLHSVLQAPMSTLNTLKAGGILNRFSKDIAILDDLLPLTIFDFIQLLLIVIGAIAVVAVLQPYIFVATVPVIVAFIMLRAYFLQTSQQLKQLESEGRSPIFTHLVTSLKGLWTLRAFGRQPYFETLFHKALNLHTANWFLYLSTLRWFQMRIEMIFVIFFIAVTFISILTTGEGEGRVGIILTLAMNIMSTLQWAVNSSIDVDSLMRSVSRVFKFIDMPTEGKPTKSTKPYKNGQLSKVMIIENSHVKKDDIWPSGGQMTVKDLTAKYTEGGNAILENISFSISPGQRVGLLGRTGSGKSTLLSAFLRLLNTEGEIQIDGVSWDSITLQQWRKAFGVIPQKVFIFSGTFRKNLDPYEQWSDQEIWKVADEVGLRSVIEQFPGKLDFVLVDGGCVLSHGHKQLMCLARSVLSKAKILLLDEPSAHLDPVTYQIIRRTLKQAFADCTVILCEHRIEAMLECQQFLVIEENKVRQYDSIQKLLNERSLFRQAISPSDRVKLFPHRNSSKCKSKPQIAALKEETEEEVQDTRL
# Experimental Protocol: Cell Surface Expression-Horse Radish Peroxidase (CSE-HRP) assay;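 also: % of on-plate positive control (2 µM of the co-corrector compound) after DMSO subtraction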
# Type: cell-based
# Condition Notes: CFBE41o-F508delCFTR-HRP cells; without co-corrector; normalized to on-plate positive control; highest concentration 20 μM
# Description: Cell Surface Expression-Horse Radish Peroxidase (CSE-HRP) Assay […] The maximum % activity achieved for the test compound either without or with a co-corrector at any tested concentration is presented in Table 1 along with the respective EC50's calculated using the following general sigmoidal curve with variable Hill slope equation (described as Model 42 in the Accelrys® Assay Explorer v3.3 software): y=(a−d)/(1+(x/c)^b)+d […]
Measured Quantity: Maximum % activity (without co-corrector)

Compound | Measured
COc1ncc(C(F)(F)F)cc1CO[C@H]1[C@H](C(C)(C)C)[C@@H](C(=O)O)N(C(=O)[C@H]2CCCCO2)[C@H]1c1cccc(Cl)c1 [Example 125] | + (<100)
COc1ccc(C(F)(F)F)cc1[C@](O)(CO)CO[C@H]1[C@H](C(C)(C)C)[C@@H](C(=O)O)N(C(=O)[C@@H]2CCCCO2)[C@H]1c1ccccc1C [Example 262] | + (<100)

Value source: patent US10399940B2
